System: E. coli (ATCC 8739)
TEST: MIC/MBC broth dilution assay
Type: cell-based, Escherichia coli
EXPERIMENTAL PARAMETERS: broth dilution, Mueller–Hinton broth, 5 × 10^5 CFU/mL, 37 °C overnight, OD 550 nm, nine replicates from three independent experiments
Experimental: The minimal inhibitory concentration assay (MIC) and minimum bactericidal concentration assay (MBC) of the peptide were carried out using the broth dilution method. […] The concentration of microbes was detected by measuring OD values through the use of a UV spectrophotometer set to 550 nm. […] The 96-well plates were analysed at 550 nm using an ELISA plate reader (Biolise BioTek EL808, Winooski, VT, USA). […]
No end group written: not given here.
READOUT TYPE: MIC (µM)
Answer with a number only, understood to be in µM.

[in] Specify measured MIC for FLGIIGKLLSGLL-NH2 [VM-3G] .
[out] 64

[in] Specify measured MIC for FLPIIGKLLSGLL-NH2 [VM] .
[out] 256

[in] Specify measured MIC for FLKIIGKLLSGLL-NH2 [VM-3K] .
[out] 8

* * *

System: P. aeruginosa biofilm
TEST: Antibiofilm assay (MBIC/MBEC), crystal violet
Assay type: cell-based, Pseudomonas aeruginosa
EXPERIMENTAL PARAMETERS: P. aeruginosa preformed 24 h biofilm, peptide 24 h at 37 °C, LB, 595 nm, nine replicates from three independent experiments
No end group written: not given here.
READOUT TYPE: MBEC

[in] Specify measured MBEC for FLPIIGKLLSGLL-NH2 [VM] .
[out] >512/>512 µM

[in] Specify measured MBEC for FLYIIGKLLSGLL-NH2 [VM-3Y] .
[out] >512/>512 µM

[in] Specify measured MBEC for FLGIIGKLLSGLL-NH2 [VM-3G] .
[out] >512/>512 µM

[in] Specify measured MBEC for FLKIIGKLLSGLL-NH2 [VM-3K] .
[out] > 512 µM

[in] Specify measured MBEC for FLWIIGKLLSGLL-NH2 [VM-3W] .
[out] >512/>512 µM

* * *

Test system: K. pneumoniae biofilm
TEST: Antibiofilm assay (MBIC/MBEC), crystal violet
Type: cell-based, Klebsiella pneumoniae
EXPERIMENTAL PARAMETERS: K. pneumoniae preformed 24 h biofilm, peptide 24 h at 37 °C, LB, 595 nm, nine replicates from three independent experiments
No end group written: not given here.
For each of the substances below, state its MBEC.

[in] Specify the recorded MBEC for FLKIIGKLLSGLL-NH2 [VM-3K] , system: K. pneumoniae biofilm.
[out] > 512 µM

[in] Specify the recorded MBEC for FLPIIGKLLSGLL-NH2 [VM] , system: K. pneumoniae biofilm.
[out] >512/>512 µM

[in] Specify the recorded MBEC for FLGIIGKLLSGLL-NH2 [VM-3G] , system: K. pneumoniae biofilm.
[out] >512/>512 µM

[in] Specify the recorded MBEC for FLYIIGKLLSGLL-NH2 [VM-3Y] , system: K. pneumoniae biofilm.
[out] >512/>512 µM

[in] Specify the recorded MBEC for FLWIIGKLLSGLL-NH2 [VM-3W] , system: K. pneumoniae biofilm.
[out] >512/>512 µM

* * *

Test system: MRSA (ATCC 12493)
TEST: MIC/MBC broth dilution assay
Format: cell-based, methicillin-resistant Staphylococcus aureus
EXPERIMENTAL PARAMETERS: broth dilution, Mueller–Hinton broth, 5 × 10^5 CFU/mL, 37 °C overnight, OD 550 nm, nine replicates from three independent experiments
No end group written: not given here.
READOUT TYPE: MIC (µM)
Answer with a number only, understood to be in µM.

[in] Specify measured MIC for FLKIIGKLLSGLL-NH2 [VM-3K] .
[out] 1

[in] Specify measured MIC for FLGIIGKLLSGLL-NH2 [VM-3G] .
[out] 2

[in] Specify measured MIC for FLPIIGKLLSGLL-NH2 [VM] .
[out] 4

[in] Specify measured MIC for FLWIIGKLLSGLL-NH2 [VM-3W] .
[out] 2
